Parameter: furin cleavage Z-score. Scope: all listed entries.
- target_or_test_system: furin, P09958;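 further: purified furin at 1:10 enzyme:substrate in 50 mM HEPES pH 7.5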
- Sequence (P09958 whole entry): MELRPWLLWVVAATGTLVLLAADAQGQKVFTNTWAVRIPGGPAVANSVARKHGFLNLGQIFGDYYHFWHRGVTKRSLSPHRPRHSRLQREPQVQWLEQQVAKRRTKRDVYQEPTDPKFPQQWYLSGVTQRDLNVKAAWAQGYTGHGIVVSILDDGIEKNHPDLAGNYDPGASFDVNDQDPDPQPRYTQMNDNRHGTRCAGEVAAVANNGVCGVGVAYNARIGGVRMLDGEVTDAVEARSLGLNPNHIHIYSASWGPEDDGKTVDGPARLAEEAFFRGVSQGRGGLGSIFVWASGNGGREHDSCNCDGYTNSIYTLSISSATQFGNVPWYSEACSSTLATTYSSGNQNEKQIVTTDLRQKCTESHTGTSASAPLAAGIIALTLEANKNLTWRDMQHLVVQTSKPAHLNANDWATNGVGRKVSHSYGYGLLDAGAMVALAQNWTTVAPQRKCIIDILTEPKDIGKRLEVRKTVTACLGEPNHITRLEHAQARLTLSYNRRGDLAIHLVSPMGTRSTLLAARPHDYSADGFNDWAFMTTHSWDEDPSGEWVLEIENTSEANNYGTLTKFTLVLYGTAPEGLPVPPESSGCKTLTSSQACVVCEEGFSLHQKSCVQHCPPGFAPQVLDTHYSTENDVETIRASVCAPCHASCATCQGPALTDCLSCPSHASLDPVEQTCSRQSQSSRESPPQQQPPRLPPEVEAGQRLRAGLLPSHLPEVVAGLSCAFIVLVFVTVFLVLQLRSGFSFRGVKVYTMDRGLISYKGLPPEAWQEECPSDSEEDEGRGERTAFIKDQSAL
- test_name: furin cleavage Z-score vs untreated control; higher = more cleavage, active = 3.5 or more, inactive = 1 or less, 8 variable residues between constant flanks
- experimental_context: 15 min
Some of the results follow. The true hit rate is not given.

Known furin cleavage Z-score results, listed for orientation:
GET /values?readout=furin cleavage Z-score&item= CAVVICESAGAGNASASA [HC1531]
-0.473 (inactive)

Consider the sequence CARLYVGGPLAGNASASA [HC1500] and give its measured furin cleavage Z-score.
0.662 (inactive)

Which furin cleavage Z-score reading was recorded for the sequence CALPAILSPGAGNASASA [HC1102] ?
-0.501 (inactive)

Next up:
Sample CAFWVRSKRSAGNASASA [FS-590] — what was its furin cleavage Z-score?
8.07 (active)
